Molecular target: T1, endogenous PTP1B-OX (Homo sapiens, UniProt P18031)
T1 construct: endogenous in cells; host or cells: 293T cells (transfected only with the scFv intrabody)
T1 sequence (P18031 1-435): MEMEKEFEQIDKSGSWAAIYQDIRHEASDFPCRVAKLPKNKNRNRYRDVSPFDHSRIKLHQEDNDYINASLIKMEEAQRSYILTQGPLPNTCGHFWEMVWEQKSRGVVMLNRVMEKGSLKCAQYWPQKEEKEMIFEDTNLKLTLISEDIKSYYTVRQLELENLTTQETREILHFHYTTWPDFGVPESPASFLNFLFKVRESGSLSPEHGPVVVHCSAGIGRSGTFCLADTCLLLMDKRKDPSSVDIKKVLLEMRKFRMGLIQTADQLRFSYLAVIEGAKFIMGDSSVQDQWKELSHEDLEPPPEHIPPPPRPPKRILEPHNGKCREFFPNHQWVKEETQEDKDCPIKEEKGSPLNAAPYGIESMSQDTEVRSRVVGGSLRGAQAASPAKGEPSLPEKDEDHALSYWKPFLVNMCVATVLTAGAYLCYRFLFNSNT
Experiment: Intrabody interaction in 293T cells treated with H2O2 (Ni-NTA pull down / anti-PTP1B immunoprecipitation)
Type: cell-based
Details: 1 mM H2O2 5 minutes, FIGS. 11, 12
assay_readout: binding of intrabody to endogenous PTP1B-OX

molecule: scFv62: scFv, SEQ ID NO: 95 and 165 (protein) scFv: MKKTAIAIAVALAGFATVAQAALTQPSSVSANPGGTVKITCSGSSSAYGYGWYQQKSPGSAPVTVIYNNNKRPSNIPSRFSGSKSGSTGTLTITGVQAEDEAVYFCGSEDSSTDAIFGAGTTLTVLGQSSRSSAVTLDESGGGLQTPGGALSLVCKASGFTFSSYDMGWVRQAPGKGLEYVAGITNDGRYASYGSAVDGRATISRDNGQSTVRLQLNNLRAEDTGTYYCARDDGSGWTGNTIDTWGHGTEVIVSSTSGQAGQHHHHHHGAYPYDVPDYAS
value_reported: bound weakly to PTP1B-OX
--
molecule: scFv34: scFv, SEQ ID NO: 67 and 163 (protein) scFv: MKKTAIAIAVALAGFATVAQAALTQPSSVSANPGGTVEITCSGSSGSHGWYQQKSPGSAPVTVIYDNTNRPSDIPSRFSGSLSGSTATLTITGVQAEDEAVYYCGSFDTNSDSGYVGIFGARTTLTVLGQSSRSSTETLDDSGGGLQTPGGALSLVCNASGFTFISYDMFWVRQAPGKGLEFVTQINSAGSYTNYGSAVNGRATISRNDGQITVRLQLNDLTADDTGIYFCAESASGYDYSGSDAGDINAWGHGTEVVVSSTSGQAGQHHHHHHGAYPYDVPDYAS
value_reported: bound weakly to PTP1B-OX
--
molecule: scFv61: scFv, SEQ ID NO: 94 and 164 (protein) scFv: MKKTAIAIAVALAGFATVAQAALTQPSSVSANPGETVKITCSGGGSYAGSYYYGWYQQKAPGSAPVTLIYDNTNRPSNIPSRFSGSLSGSTGTLTITGVRAEDEAVYYCGSFDSSTDGGYAAIFGAGTTLTVLGQSSRSSAVTLDESGGGLQTPGGGLSLVCKASEFTFSSYAMEWVRQAPGKGLEWVAYINSDGSSTWYAPAVKGRATISRDNGQSTVRLQLNSLRAEDTATYYCTRGSGGENIDTWGHGTEVIVSSTSGQAGQHHHHHHGAYPYDVPDYAS
value_reported: bound weakly to PTP1B-OX
